Test: LogP by HPLC on reversed phase columns (EEC directive 79/831 Annex V.A8)
Format: physicochemical
Conditions: Table 1, compounds of formula (I); LC-UV, acidic range, 0.1% formic acid in water and acetonitrile as eluent; read-out: Log P[a]
chromatographic logP values by entry
I'd appreciate a reply containing only the number, no unit.

Req: State its chromatographic logP: COC(=O)C1(c2nc(C3=NOC(c4ccccc4OS(C)(=O)=O)C3)cs2)CCN(C(=O)Cn2nc(C(F)F)cc2C(F)F)CC1 (centres unmarked)
Resp: 3.27

// below: chromatographic logP requested for another compound
Req: State its chromatographic logP: COC(=O)C1(c2nc(C3=NOC(c4c(Cl)cccc4OS(C)(=O)=O)C3)cs2)CCN(C(=O)Nc2cc(C(F)F)nn2C)CC1 (centres unmarked)
Resp: 2.84

* * *

Test: LogP by HPLC on reversed phase columns (EEC directive 79/831 Annex V.A8)
Format: physicochemical
Conditions: Table 1, compounds of formula (I); LC-UV, acidic range, 0.1% formic acid in water and acetonitrile as eluent
reported property: Log P[a]

Solved entries (count: 2):
Req: State its Log P[a]: O=C(Cn1nc(C(F)F)cc1C(F)F)N1CCC(C(=O)OC2CCOC2)(c2nc(C3=NOC(c4ccccc4-c4ccccc4)C3)cs2)CC1 (stereo not drawn)
Resp: 4.31

Req: State its Log P[a]: CC(C)OC(=O)C1(c2nc(C3=NOC(c4ccccc4-c4ccccc4)C3)cs2)CCN(C(=O)Cn2nc(C(F)F)cc2C(F)F)CC1 (stereo not drawn)
Resp: 4.92

// below: Log P[a] requested for another molecule
Req: State its Log P[a]: C=CCOC(=O)C1(c2nc(C3=NOC(c4ccccc4-c4ccccc4)C3)cs2)CCN(C(=O)Cn2nc(C(F)F)cc2C(F)F)CC1 (stereo not drawn)
Resp: 4.72

* * *

Test: LogP by HPLC on reversed phase columns (EEC directive 79/831 Annex V.A8)
Format: physicochemical
Log P[a] values by entry

Req: State its Log P[a]: COC(=O)C1(C(N)=S)CCN(C(=O)Nc2cn(C)nc2C(F)F)CC1 [II-16]
Resp: 1.22

Req: State its Log P[a]: CSCCOC(=O)C1(c2nc(C3=NOC(c4c(Cl)cccc4OS(C)(=O)=O)C3)cs2)CCN(C(=O)Cn2nc(C(F)F)cc2C(F)F)CC1 (stereo not shown) [Example I-47]
Resp: 3.85

Req: State its Log P[a]: NC(=S)C1(C(=O)OC2CCOC2)CCN(C(=O)Cn2nc(C(F)F)cc2C(F)F)CC1 (stereo not shown) [II-1]
Resp: 2.02

***
Req: State its Log P[a]: C#CCOC(=O)C1(c2nc(C3=NOC(c4c(Cl)cccc4OS(C)(=O)=O)C3)cs2)CCN(C(=O)Cn2nc(C(F)F)cc2C(F)F)CC1 (stereo not shown) [Example I-78]
Resp: 3.58

* * *

Assay: LogP by HPLC on reversed phase columns (EEC directive 79/831 Annex V.A8)
Assay type: physicochemical
Hi! Just check whether Log P[a] is below 3. Below gives Met, equal or above gives Not met.

Req: Field: below-cutoff. Rule: recorded Log P[a] strictly less than 3. Subject: COC(=O)C1(c2nc(C3=NOC(c4c(F)cccc4F)C3)cs2)CCN(C(=O)Cn2nc(C(F)(F)F)cc2C)CC1 (centres unmarked)
Resp: Not met
